# target entity: hRR (hRRM1 and hRRM2) (Homo sapiens, UniProt P23921)
# Sequence (P23921 1-792): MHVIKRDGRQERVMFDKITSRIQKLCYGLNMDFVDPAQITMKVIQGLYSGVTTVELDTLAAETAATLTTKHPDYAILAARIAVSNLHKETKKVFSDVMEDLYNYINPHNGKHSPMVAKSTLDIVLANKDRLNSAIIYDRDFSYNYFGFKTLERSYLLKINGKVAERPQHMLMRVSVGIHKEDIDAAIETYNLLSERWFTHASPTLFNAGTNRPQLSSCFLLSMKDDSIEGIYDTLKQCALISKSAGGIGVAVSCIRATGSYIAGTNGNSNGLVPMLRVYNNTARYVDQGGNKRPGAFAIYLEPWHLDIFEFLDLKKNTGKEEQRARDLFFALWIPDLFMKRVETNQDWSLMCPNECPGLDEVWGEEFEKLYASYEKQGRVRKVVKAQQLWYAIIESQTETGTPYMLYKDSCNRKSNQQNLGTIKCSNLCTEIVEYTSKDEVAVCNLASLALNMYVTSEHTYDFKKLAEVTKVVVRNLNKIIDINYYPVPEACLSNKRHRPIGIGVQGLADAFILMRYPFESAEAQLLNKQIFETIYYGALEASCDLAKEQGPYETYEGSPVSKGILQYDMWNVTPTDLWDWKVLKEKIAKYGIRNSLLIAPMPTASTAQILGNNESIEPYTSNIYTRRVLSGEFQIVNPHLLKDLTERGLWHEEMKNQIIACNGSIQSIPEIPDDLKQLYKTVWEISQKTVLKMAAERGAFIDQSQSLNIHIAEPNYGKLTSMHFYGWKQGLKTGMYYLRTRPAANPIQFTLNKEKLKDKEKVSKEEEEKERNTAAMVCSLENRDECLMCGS
# Sequence (P31350 1-389 partner): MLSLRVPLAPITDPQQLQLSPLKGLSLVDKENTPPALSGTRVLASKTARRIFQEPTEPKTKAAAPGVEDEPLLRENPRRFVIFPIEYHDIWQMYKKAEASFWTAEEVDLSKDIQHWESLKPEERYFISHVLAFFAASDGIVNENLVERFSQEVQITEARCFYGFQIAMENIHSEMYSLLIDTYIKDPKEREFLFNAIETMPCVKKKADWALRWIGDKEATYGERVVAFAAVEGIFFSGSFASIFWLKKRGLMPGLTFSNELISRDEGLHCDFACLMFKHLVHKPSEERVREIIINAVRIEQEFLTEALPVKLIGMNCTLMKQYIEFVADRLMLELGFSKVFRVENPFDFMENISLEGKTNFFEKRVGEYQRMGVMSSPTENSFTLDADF
# details: read-out: Cell-Free IC50; NSAAH library against hRR
Please respond with reported IC50 for every item in the list.

The value of IC50 recorded for `O=S(=O)(N/N=C/c1c(O)ccc2ccccc12)c1ccccc1` when tested on hRR (hRRM1 and hRRM2) (Homo sapiens, UniProt P23921) reads 122 µM

The value of IC50 recorded for CC1(C)C2CC(=O)C1C(CS(=O)(=O)N/N=C/c1c(O)ccc3ccccc13)C2 (stereo not shown) when tested on hRR (hRRM1 and hRRM2) (Homo sapiens, UniProt P23921) reads 298 µM

The value of IC50 recorded for `O=C(N/N=C/c1c(O)ccc2ccccc12)c1cccnc1` when tested on hRR (hRRM1 and hRRM2) (Homo sapiens, UniProt P23921) reads 5.3 µM

The value of IC50 recorded for `Cc1ccc(S(=O)(=O)N/N=C/c2c(O)ccc3ccccc23)cc1` when tested on hRR (hRRM1 and hRRM2) (Homo sapiens, UniProt P23921) reads 6.8 µM
